# tgt: Transient receptor potential cation channel subfamily V member 1 (Homo sapiens, UniProt Q8NER1)
# Sequence (Q8NER1 whole entry): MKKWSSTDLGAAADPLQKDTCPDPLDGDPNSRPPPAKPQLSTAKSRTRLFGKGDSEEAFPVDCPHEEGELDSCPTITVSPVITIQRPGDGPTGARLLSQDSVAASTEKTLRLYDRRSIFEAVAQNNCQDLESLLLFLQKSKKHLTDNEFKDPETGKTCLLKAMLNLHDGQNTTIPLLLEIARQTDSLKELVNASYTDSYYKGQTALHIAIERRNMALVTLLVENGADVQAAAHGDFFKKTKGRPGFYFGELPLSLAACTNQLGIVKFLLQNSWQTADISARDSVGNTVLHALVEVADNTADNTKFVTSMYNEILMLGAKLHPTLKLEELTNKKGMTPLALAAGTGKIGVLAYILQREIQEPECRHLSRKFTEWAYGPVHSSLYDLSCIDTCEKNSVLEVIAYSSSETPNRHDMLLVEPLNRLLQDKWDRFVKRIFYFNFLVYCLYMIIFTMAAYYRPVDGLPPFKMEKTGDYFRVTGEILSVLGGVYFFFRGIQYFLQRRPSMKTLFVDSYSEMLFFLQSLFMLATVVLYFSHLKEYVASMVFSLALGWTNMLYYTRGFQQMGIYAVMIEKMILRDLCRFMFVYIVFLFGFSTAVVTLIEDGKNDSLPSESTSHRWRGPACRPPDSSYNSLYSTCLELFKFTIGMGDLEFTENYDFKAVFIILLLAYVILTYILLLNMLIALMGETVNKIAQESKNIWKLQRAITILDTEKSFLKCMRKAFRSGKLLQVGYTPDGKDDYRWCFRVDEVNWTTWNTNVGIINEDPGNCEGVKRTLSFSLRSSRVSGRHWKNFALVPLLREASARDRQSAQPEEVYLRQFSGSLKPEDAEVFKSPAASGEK
pIC50: −log10 of the molar value.
measured attribute: pIC50

{"smiles notation": "CCCCCC[C@H](C/C=C\\CCCCCCCC(=O)OCC(=O)NCCc1cc(O)c(O)cc1I)OC(=O)Cc1ccccc1", "value comparator": "<", "observed result": 4.00}
{"smiles notation": "O=C(CO)NCCc1cc(O)c(O)cc1I", "value comparator": "<", "observed result": 4.00}
{"smiles notation": "CCCCCCCC(=O)OCC(=O)NCCc1cc(O)c(O)cc1I", "value comparator": "=", "observed result": 4.27}
{"smiles notation": "CCCCCCCCCCCC(=O)OCC(=O)NCCc1cc(O)c(O)cc1I", "value comparator": "=", "observed result": 4.19}

###

# tgt: Transient receptor potential cation channel subfamily V member 1 (Homo sapiens)
# assay name: Agonist activity at human TRPV1 expressed in HEK293 cells assessed as induction of current by patch clamp assay
pEC50: −log10 of the molar value.

{"smiles notation": "CC(C)=CCC/C(C)=C/C(=O)OCC(=O)NCCO", "pEC50": 4.32}

###

Here, each record is paired with measured pEC50 data.
# tgt: UniProt P34972
# Sequence (P34972 whole entry): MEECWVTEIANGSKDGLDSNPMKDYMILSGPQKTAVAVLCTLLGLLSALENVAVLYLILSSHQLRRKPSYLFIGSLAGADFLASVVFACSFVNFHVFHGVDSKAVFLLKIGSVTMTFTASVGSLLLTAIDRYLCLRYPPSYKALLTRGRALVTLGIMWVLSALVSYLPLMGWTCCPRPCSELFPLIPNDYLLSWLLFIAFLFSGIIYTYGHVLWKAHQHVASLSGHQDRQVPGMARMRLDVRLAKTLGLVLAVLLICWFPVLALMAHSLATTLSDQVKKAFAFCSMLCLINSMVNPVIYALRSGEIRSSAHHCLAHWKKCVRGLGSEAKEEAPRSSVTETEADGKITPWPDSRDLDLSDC
# assay name: Agonist activity at recombinant human CB2 receptor expressed in HEK293-CNG cells assessed as reduction in forskolin-induced cAMP accumulation incubated for 60 mins by fluorescence based analysis
pEC50: −log10 of the molar value.

{"smiles notation": "CCCCCCCC(=O)OCC(=O)NCCc1cc(O)c(O)cc1I", "value comparator": "<", "pEC50": 4.00}
{"smiles notation": "O=C(CO)NC1CC1", "value comparator": "<", "pEC50": 4.00}
{"smiles notation": "CC(C)=CCC/C(C)=C/C(=O)OCC(=O)NCCO", "value comparator": "=", "pEC50": 4.42}
{"smiles notation": "C=CCNC(=O)COC(=O)CCC/C=C\\C/C=C\\C/C=C\\C/C=C\\CCCCC", "value comparator": "=", "pEC50": 4.21}
{"smiles notation": "O=C(CO)NCCO", "value comparator": "<", "pEC50": 4.00}
{"smiles notation": "CCCCCCCCCCCC(=O)OCC(=O)NC1CC1", "value comparator": "=", "pEC50": 4.06}
{"smiles notation": "C=CCNC(=O)CO", "value comparator": "<", "pEC50": 4.00}
{"smiles notation": "CC(C)=CCC/C(C)=C/C(=O)OCC(=O)NCCc1cc(O)c(O)cc1I", "value comparator": "=", "pEC50": 4.43}
{"smiles notation": "CC(C)=CCC/C(C)=C/C(=O)OCC(=O)NCCc1ccc(O)c(O)c1", "value comparator": "=", "pEC50": 4.05}
{"smiles notation": "O=C(CO)NCCc1ccc(O)c(O)c1", "value comparator": "<", "pEC50": 4.00}
{"smiles notation": "O=C(CO)NCCc1cc(O)c(O)cc1I", "value comparator": "<", "pEC50": 4.00}

###

# assay name: Metabolic stability in human liver S9 fraction assessed as parent compound remaining at 5 uM incubated for 60 mins
Here, each record is paired with measured remaining at 1 h, 5 µM data.
measured attribute: remaining at 1 h, 5 µM (%)

{"smiles notation": "CCCCCCCCCCCC(=O)OCC(=O)NC1CC1", "unit of measurement": "%", "observed result": 1}
{"smiles notation": "CCCCC/C=C\\C/C=C\\C/C=C\\C/C=C\\CCCC(=O)OCC(=O)NCCO", "unit of measurement": "%", "observed result": 24}
{"smiles notation": "CC(C)=CCC/C(C)=C/C(=O)OCC(=O)NCCO", "unit of measurement": "%", "observed result": 89}
{"smiles notation": "CCCCCCCC(=O)OCC(=O)NCCc1cc(O)c(O)cc1I", "unit of measurement": "%", "observed result": 1}

###

Here, each record is paired with measured EC50 data.
# tgt: Transient receptor potential cation channel subfamily V member 1 (Homo sapiens)
# assay name: Agonist activity at recombinant human TRPV1 transfected in HEK293 cells assessed as increase in intracellular Ca2+ influx by Fluo-4 NW Ca2+ dye based microfluorometric calcium flux assay
measured attribute: EC50 (µM)

{"smiles notation": "O=C(CO)NC1CC1", "value comparator": ">", "observed result": 100}
{"smiles notation": "C=CCNC(=O)COC(=O)CCCCCCCCCCC", "value comparator": "=", "observed result": 11.4}
{"smiles notation": "CCCCCCCC/C=C\\CCCCCCCC(=O)OCC(=O)NC1CC1", "value comparator": "=", "observed result": 0.7}
{"smiles notation": "CCCCCCCC(=O)OCC(=O)NCCc1ccc(O)c(O)c1", "value comparator": "=", "observed result": 10.6}

###

# assay name: Metabolic stability in human Fibroblast assessed as parent compound remaining at 5 uM incubated for 120 mins
# condition context: fibroblasts

{"smiles notation": "CCCCCCCCCCCC(=O)OCC(=O)NC1CC1", "remaining at 2 h, 5 µM (%)": 62}
{"smiles notation": "CC(C)=CCC/C(C)=C/C(=O)OCC(=O)NCCO", "remaining at 2 h, 5 µM (%)": 93}
{"smiles notation": "CCCCC/C=C\\C/C=C\\C/C=C\\C/C=C\\CCCC(=O)OCC(=O)NCCO", "remaining at 2 h, 5 µM (%)": 73}
{"smiles notation": "CCCCCCCC(=O)OCC(=O)NCCc1cc(O)c(O)cc1I", "remaining at 2 h, 5 µM (%)": 69}

###

# assay name: Metabolic stability in human plasma assessed as parent compound remaining at 50 uM incubated for 60 mins
Here, each record is paired with measured remaining at 1 h, 50 µM data.

{"smiles notation": "CCCCCCCCCCCC(=O)OCC(=O)NC1CC1", "value comparator": "=", "remaining at 1 h, 50 µM, %": 80}
{"smiles notation": "CC(C)=CCC/C(C)=C/C(=O)OCC(=O)NCCO", "value comparator": "=", "remaining at 1 h, 50 µM, %": 89}
{"smiles notation": "CCCCCCCC(=O)OCC(=O)NCCc1cc(O)c(O)cc1I", "value comparator": "=", "remaining at 1 h, 50 µM, %": 13}
{"smiles notation": "CCCCC/C=C\\C/C=C\\C/C=C\\C/C=C\\CCCC(=O)OCC(=O)NCCO", "value comparator": ">", "remaining at 1 h, 50 µM, %": 99}

###

# tgt: Transient receptor potential cation channel subfamily V member 1 (Homo sapiens, UniProt Q8NER1)
# assay name: Agonist activity at recombinant human TRPV1 transfected in HEK293 cells assessed as increase in intracellular Ca2+ influx by Fluo-4 NW Ca2+ dye based microfluorometric calcium flux assay
pEC50: −log10 of the molar value.

{"smiles notation": "CCCCCC[C@H](C/C=C\\CCCCCCCC(=O)OCC(=O)NCCO)OC(=O)Cc1ccccc1", "pEC50": 5.43}
{"smiles notation": "C=CCNC(=O)COC(=O)CC/C(C)=C/CC/C(C)=C/CC/C=C(\\C)CC/C=C(\\C)CCC=C(C)C", "pEC50": 4.44}
{"smiles notation": "C=CCNC(=O)COC(=O)CCCCCCC/C=C\\CCCCCCCC", "pEC50": 5.33}
{"smiles notation": "CCCCCC[C@H](C/C=C\\CCCCCCCC(=O)OCC(=O)NC1CC1)OC(=O)Cc1ccccc1", "pEC50": 5.59}
{"smiles notation": "C=CCNC(=O)COC(=O)CCCCCCC", "pEC50": 4.63}

###

Here, each record is paired with measured EC50 data.
# tgt: UniProt:P21554
# Sequence (P21554 whole entry): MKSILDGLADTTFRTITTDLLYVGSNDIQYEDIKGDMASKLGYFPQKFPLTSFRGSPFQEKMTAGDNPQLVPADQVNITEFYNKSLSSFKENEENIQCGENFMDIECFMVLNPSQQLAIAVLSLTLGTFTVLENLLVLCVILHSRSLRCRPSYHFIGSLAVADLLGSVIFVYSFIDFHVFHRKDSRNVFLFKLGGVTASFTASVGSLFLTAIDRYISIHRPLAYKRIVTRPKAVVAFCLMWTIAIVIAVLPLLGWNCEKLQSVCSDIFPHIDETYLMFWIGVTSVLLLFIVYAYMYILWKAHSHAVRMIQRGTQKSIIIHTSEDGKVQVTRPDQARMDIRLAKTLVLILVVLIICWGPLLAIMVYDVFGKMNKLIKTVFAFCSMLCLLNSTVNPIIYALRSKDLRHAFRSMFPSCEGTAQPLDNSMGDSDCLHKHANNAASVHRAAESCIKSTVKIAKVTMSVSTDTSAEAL
# assay name: Agonist activity at recombinant human CB1 receptor expressed in HEK293-CNG cells assessed as reduction in forskolin-induced cAMP accumulation incubated for 60 mins by fluorescence based analysis

{"smiles notation": "CC(C)=CCC/C(C)=C/C(=O)OCC(=O)NCCc1ccc(O)c(O)c1", "EC50": "118 µM"}
{"smiles notation": "CCCCC/C=C\\C/C=C\\C/C=C\\C/C=C\\CCCC(=O)OCC(=O)NCCO", "EC50": "30.6 µM"}
{"smiles notation": "O=C(CO)NCCc1cc(O)c(O)cc1I", "EC50": "> 100 µM"}
{"smiles notation": "O=C(CO)NC1CC1", "EC50": "> 100 µM"}
{"smiles notation": "CC(C)=CCC/C(C)=C/CC/C(C)=C/CC/C=C(\\C)CC/C=C(\\C)CCC(=O)OCC(=O)NC1CC1", "EC50": "196 µM"}
{"smiles notation": "CC(C)=CCC/C(C)=C/C(=O)OCC(=O)NCCc1cc(O)c(O)cc1I", "EC50": "41.4 µM"}
{"smiles notation": "C=CCNC(=O)CO", "EC50": "> 100 µM"}
{"smiles notation": "CCCCC/C=C\\C/C=C\\C/C=C\\C/C=C\\CCCC(=O)OCC(=O)NC1CC1", "EC50": "13.8 µM"}
{"smiles notation": "C=CCNC(=O)COC(=O)CCC/C=C\\C/C=C\\C/C=C\\C/C=C\\CCCCC", "EC50": "16.6 µM"}
{"smiles notation": "O=C(CO)NCCO", "EC50": "> 100 µM"}
{"smiles notation": "O=C(CO)NCCc1ccc(O)c(O)c1", "EC50": "> 100 µM"}
{"smiles notation": "CCCCCCCC/C=C\\CCCCCCCC(=O)OCC(=O)NC1CC1", "EC50": "27.9 µM"}
{"smiles notation": "CCCCCCCC(=O)OCC(=O)NCCc1ccc(O)c(O)c1", "EC50": "13.9 µM"}

Where do the numbers come from? From ChEMBL document CHEMBL6071163.
